Hi there, I'd appreciate the recorded inhibition of SARS-CoV-2 cytopathic effect for every entry that follows.
system: Vero E6 infected with SARS-CoV-2; test: inhibition of SARS-CoV-2 cytopathic effect; higher = more antiviral protection, active = above 15; settings: 8.33 nM; 48 h
Give bare numbers, in %.

// below: answered molecules
S=C(NCCc1ccccn1)Nc1ccc(Br)cn1 [trovirdine] | 2.79
Cc1cc2c(s1)Nc1ccccc1N=C2N1CCN(C)CC1 [olanzapine] | -2.18

// batch mode: one inhibition of SARS-CoV-2 cytopathic effect value per listed entry
1. CO/N=C1/C[C@@H](C(=O)NC[C@@H](O)c2ccccc2)N(C(=O)c2ccc(-c3ccccc3C)cc2)C1 [OT-R-antagonist-1]
2. CCNC(=O)C#Cc1ccc2c(C(=Nc3ccc(CN(C)C)cc3)c3ccccc3)c(O)[nH]c2c1
3. CC[C@]1(O)C[C@@H]2CN(CCc3c([nH]c4ccccc34)[C@@](C(=O)OC)(c3cc4c(cc3OC)N(C)[C@H]3[C@@](O)(C(N)=O)[C@H](O)[C@]5(CC)C=CCN6CC[C@]43[C@@H]65)C2)C1 [vindesine]
4. CC(C)C[C@@H](N)C1(c2ccc(Cl)cc2)CCC1

1. 1.59
2. -0.81
3. 0.16
4. -2.41

// batch mode: one inhibition of SARS-CoV-2 cytopathic effect value per listed entry
1. CC(C)(Sc1cc(C(C)(C)C)c(O)c(C(C)(C)C)c1)Sc1cc(C(C)(C)C)c(O)c(C(C)(C)C)c1 [probucol]
2. CCCCOc1ccc(C(=O)CCN2CCCCC2)cc1 [dyclonine]
3. NS(=O)(=O)c1cc(Cl)c(Cl)c(S(N)(=O)=O)c1 [diclofenamide]

1: 2.66; 2: 3.66; 3: -2.1

// batch mode: one inhibition of SARS-CoV-2 cytopathic effect value per listed entry
1. CCCCOC(=O)c1cc2c(cn1)[nH]c1ccccc12 [beta-CCB]
2. CN(C)[C@@H]1CCc2[nH]c3ccc(NC(=O)c4ccc(F)cc4)cc3c2C1
3. C[N+](C)(C)CCCCCNCC12CC3CC(CC(C3)C1)C2

[-1.62, 0.81, -5.14]

// batch mode: one inhibition of SARS-CoV-2 cytopathic effect value per listed entry
1. CCCCNc1c(C(=O)OCC)c(C)nc2c1cnn2CC [tracazolate]
2. CCS(=O)(=O)N1CC(CC#N)(n2cc(-c3ncnc4[nH]ccc34)cn2)C1 [baricitinib]
3. NCCC(=O)N[C@@H](Cc1c[nH]cn1)C(=O)O [carnosine]
4. CC1(C)OC[C@H](NC(=O)Nc2ccc(Br)cc2Br)[C@H](c2ccccc2)O1
5. CC(=O)OCC(=O)[C@@]1(O)CC[C@H]2[C@@H]3CCC4=CC(=O)CC[C@]4(C)[C@H]3[C@@H](O)C[C@@]21C [hydrocortisone-acetate]

1. 1.49
2. -0.51
3. -1.74
4. 0.87
5. -0.84

// batch mode: one inhibition of SARS-CoV-2 cytopathic effect value per listed entry
1. Cc1cc(OI)c(C(C)C)cc1-c1cc(C(C)C)c(OI)cc1C [thymol-iodide]
2. CCOC(=O)n1ccn(C)c1=S [carbimazole]
3. Cc1cccc(C)c1OCC(=O)N[C@@H](Cc1ccccc1)[C@@H](O)C[C@H](Cc1ccccc1)NC(=O)[C@H](C(C)C)N1CCCNC1=O [Lopinavir]
4. CC(C)/N=c1\cc2n(-c3ccc(Cl)cc3)c3ccccc3nc-2cc1Nc1ccc(Cl)cc1 [clofazimine]
5. O=C(NN1C(=O)[C@@H]2[C@@H]3C=C[C@@H]([C@H]4C[C@@H]34)[C@@H]2C1=O)c1ccc(C(F)(F)F)cc1 [tecovirimat]
6. Cc1cnc(-c2cc(N3CCN(C(=O)CCS(C)(=O)=O)CC3)ncc2Cl)c(C)c1

-0.04
-2.13
-0.07
0.21
2.44
-0.24

// batch mode: one inhibition of SARS-CoV-2 cytopathic effect value per listed entry
1. Cc1oc(-c2ccccc2)nc1CCOc1ccc(CC2SC(=O)NC2=O)c2sccc12 (stereo not given) [edaglitazone]
2. CCS(=O)(=O)c1ccc2oc(-c3ccc4ccccc4c3)nc2c1 [ezutromid]
3. CC=C1C(=O)C[C@H]2[C@@H]3CCC4=CC(=O)CC[C@]4(C)[C@H]3CC[C@]12C
4. O=C(Nc1ccc(C(=O)O)c(O)c1)c1ccccc1 [benzoylpas]
5. Cc1cn2nc([C@@H]3CCCCN3C(=O)c3cc(Cl)ccc3NS(C)(=O)=O)cc2nc1N1CC[C@H](N)C1 [presatovir]
6. C[N+](C)(C)CCCCCC[N+](C)(C)C [hexamethonium]
7. Oc1ccc(-c2nc3cc(O)cc(Br)c3o2)cc1

[0.98, 0.67, -0.87, -2.28, 0.48, 1.65, 1.49]

// batch mode: one inhibition of SARS-CoV-2 cytopathic effect value per listed entry
1. Cc1nc(Nc2ccc(F)cc2)nc(N2CCc3ccccc3C2C)c1C (stereo not given) [revaprazan]
2. CN1C(=O)C(F)=C[C@]2(C)[C@H]3CC[C@]4(C)[C@@H](C(=O)NCc5nc6cccnc6[nH]5)CC[C@H]4[C@@H]3CC[C@@H]12
3. Cc1cc(O)c2c(=O)c3c(O)cc(O)c4c5c(O)cc(O)c6c(=O)c7c(O)cc(C)c8c1c2c(c34)c(c78)c65 [hypericin]
4. Cc1ccc2c(-c3ccccc3)nc(=O)n(C(C)C)c2c1 [proquazone]
5. CNC(=S)C1(c2ccccn2)CCCS1 (stereo not given) [picartamide]

1. 1.64
2. -0.43
3. -1.72
4. 0.21
5. 0.23
